Molecular target: GST-tagged-Wee1 kinase (Homo sapiens, UniProt P30291)
Construct: purchased Carnabio 05-177
Sequence (P30291 whole entry): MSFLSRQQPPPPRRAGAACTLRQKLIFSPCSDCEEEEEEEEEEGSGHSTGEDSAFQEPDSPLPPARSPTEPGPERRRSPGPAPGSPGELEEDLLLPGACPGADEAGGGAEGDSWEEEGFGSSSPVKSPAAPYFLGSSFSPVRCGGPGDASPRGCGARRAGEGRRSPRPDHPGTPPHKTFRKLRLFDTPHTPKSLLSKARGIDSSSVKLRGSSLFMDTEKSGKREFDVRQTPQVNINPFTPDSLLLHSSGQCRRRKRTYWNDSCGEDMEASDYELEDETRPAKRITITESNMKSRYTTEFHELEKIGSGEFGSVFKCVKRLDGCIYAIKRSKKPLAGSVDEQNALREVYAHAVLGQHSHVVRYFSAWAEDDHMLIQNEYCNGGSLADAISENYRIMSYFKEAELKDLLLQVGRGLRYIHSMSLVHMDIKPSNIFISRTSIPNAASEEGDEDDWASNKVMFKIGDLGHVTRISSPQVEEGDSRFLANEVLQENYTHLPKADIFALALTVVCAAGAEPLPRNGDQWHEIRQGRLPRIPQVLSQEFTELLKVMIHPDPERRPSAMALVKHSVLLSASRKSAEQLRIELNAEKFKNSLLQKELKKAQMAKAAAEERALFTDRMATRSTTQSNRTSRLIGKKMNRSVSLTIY
Assay: Wee1 time-resolved fluorescence equilibrium binding assay (displacement of Oregon Green-labeled ATP-competitive kinase probe)
Conditions: enzyme binding data; GST-tagged-Wee1 kinase 2 nM, fluorescent probe 300 nM, inhibitor 0.003 to 10 micromolar, 1 hour incubation; read-out: Wee-1 binding (Ki nM)
Protocol: Wee1 kinase was assayed using a time-resolved fluorescence equilibrium binding assay monitoring displacement of a rapidly reversible Oregon Green-labeled ATP-competitive kinase probe (N-(2-(2-(2-(4-(4-(5-chloro-4-(2-(1-hydroxycyclobutyl)thiazol-5-yl)-1H-pyrrolo[2,3-b]pyridin-2-yl)phenyl)piperazin-1-yl)ethoxy)ethoxy)ethyl)-2′,7′-difluoro-3′,6′-dihydroxy-3-oxo-3H-spiro[isobenzofuran-1,9′-xanthene]-5-carboxamide) by competitive Wee1 inhibitors. […]
Threshold-based label: Ki under 2 nM gives true (1), Ki not under 2 nM gives false (0).

Cc1cn(-c2c(Cl)cccc2Cl)c(=O)c2cnc(Nc3ccc(NC4CCN(C)CC4)cc3)nc12 | true (1)

QUERY: Here's an entry: "Cc1cn(-c2cccc3ccccc23)c(=O)c2cnc(Nc3ccc4c(c3)CNCC4)nc12" . Is its Ki below 2 nM?
RESULT: false (0)

QUERY: What about "Cc1cn(-c2c(F)cccc2Cl)c(=O)c2cnc(Nc3ccc4c(c3)CCNC4)nc12" ?
RESULT: false (0)

QUERY: What about "Cc1cccc(Cl)c1-n1cc(C)c2nc(Nc3ccc4c(c3)CNCC4)ncc2c1=O" ?
RESULT: true (1)

QUERY: What about CN(C)C1Cc2ccc(Nc3ncc4c(=O)n(-c5c(Cl)cccc5Cl)cc(CO)c4n3)cc2C1 (centres unmarked) ?
RESULT: true (1)

QUERY: What about C=Cc1cn(-c2c(Cl)cccc2Cl)c(=O)c2cnc(Nc3ccc4c(c3)CC(N(C)C)C4)nc12 (centres unmarked) ?
RESULT: true (1)

QUERY: What about "Cc1cn(-c2c(O)cccc2Cl)c(=O)c2cnc(Nc3ccc4c(c3)CNC4(C)C)nc12" ?
RESULT: true (1)
